# Assay system: bovine ARβ3 receptor (Bos taurus)
# Construct: to liberate the 1598-base pair fragment containing the coding region of the bovine β3 gene; expressed in transfected cells
# Assay info: competitive binding of ligands against [^125 I]cyanopindolol on intact CHO cells, bovine receptor (clone 62-26)
Value kind: Ki
Give your result as the value with the unit written after it.

The cases that follow already have their Ki on record.
Compound	Result value
C[C@H](Cc1ccc(OCC(=O)O)cc1)NC[C@H](O)c1cccc(Cl)c1 (relative stereo)	2.13 nM
NC[C@H](O)c1ccc(O)c(O)c1 [(-) norepinephrine, (-)-norepinephrine]	423 nM

Next compound, Ki to be filled in.
For the compound shown here, CC(C)NCC(O)c1ccc(O)c(O)c1 (single isomer, unassigned; (-)) [(-) isproterenol, (-)-iso-proterenol] , give the reported Ki.
84 nM

----------
# Assay system: bovine ARβ3 receptor (Bos taurus, UniProt P46626)
# Construct: to liberate the 1598-base pair fragment containing the coding region of the bovine β3 gene; expressed in transfected cells
# Sequence (P46626 whole entry, the tested form may be a part): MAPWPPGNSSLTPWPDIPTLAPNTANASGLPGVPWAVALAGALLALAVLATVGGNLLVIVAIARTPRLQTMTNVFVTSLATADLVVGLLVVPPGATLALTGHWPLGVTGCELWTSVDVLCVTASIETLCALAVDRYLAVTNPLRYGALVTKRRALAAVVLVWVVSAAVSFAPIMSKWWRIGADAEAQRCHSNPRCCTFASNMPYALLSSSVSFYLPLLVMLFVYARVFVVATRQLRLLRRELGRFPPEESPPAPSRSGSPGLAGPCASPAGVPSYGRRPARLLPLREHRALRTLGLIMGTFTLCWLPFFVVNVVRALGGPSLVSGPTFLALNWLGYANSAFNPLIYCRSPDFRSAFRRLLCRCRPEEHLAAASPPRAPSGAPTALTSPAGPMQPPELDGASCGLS
# Assay info: adenylate cyclase activation (cAMP accumulation) in CHO cells, bovine receptor (clone 62-26)
# Assay type: cell-based
# Details: BovineRAβ3-CHO; 30 minutes at 37° C.; read-out: Accumul. cAMP Kact (adenylate cyclase activation constant)
Value kind: pEC50
Friendly reminder that pEC50 comes from taking -log10 of the concentration in mol/L.

Compound	Result value
CC(C)(Cc1c[nH]c2ccccc12)NCC(O)COc1ccccc1C#N (centres unmarked)	7.89

Request the reported pEC50 associated with O=C(O)COc1ccc(OCCNCC(O)COc2ccccc2)cc1 (centres unmarked)
8.96

----------
# Assay system: bovine ARβ3 receptor (Bos taurus, UniProt P46626)
# Construct: to liberate the 1598-base pair fragment containing the coding region of the bovine β3 gene; expressed in transfected cells
# Assay info: adenylate cyclase activation (cAMP accumulation) in CHO cells, bovine receptor (clone 62-26)
# Format: cell-based
# Parameters: dose or concentration left out as unconfirmed
# Details: CHO, 0.5 h, read-out: Accumul. cAMP IA (intrinsic activity)
Below: a set of entries, each annotated with reported Emax.
// note: answer is a bare numeric in %

Solved cases below.
Molecule	Readout units	Emax
CNC[C@H](O)c1ccc(O)c(O)c1 [(- ) epinephrine, (-)-epinephrine]	%	80
CC(C)NCC(O)c1ccc(O)c(O)c1 (single isomer, unassigned; (-)) [(-) isproterenol, (-)-iso-proterenol]	%	90
C[C@H](Cc1ccc(OCC(=O)O)cc1)NC[C@H](O)c1cccc(Cl)c1 (relative stereo) [BRL 37344]	%	84

Lab note: next molecule to report on.
Name the reported Emax value associated with the molecule NC[C@H](O)c1ccc(O)c(O)c1 [(-) norepinephrine, (-)-norepinephrine]
100

----------
# Assay system: bovine ARβ3 receptor (Bos taurus)
# Construct: to liberate the 1598-base pair fragment containing the coding region of the bovine β3 gene; expressed in transfected cells
# Assay info: adenylate cyclase activation (cAMP accumulation) in CHO cells, bovine receptor (clone 62-26)
# Format: cell-based
# Details: BovineRAβ3-CHO; 30 minutes at 37° C.; read-out: Accumul. cAMP Kact (adenylate cyclase activation constant)
Below, each entry is listed alongside its reported EC50.
State the value with its unit after it.

Molecule	Result value
CNC[C@H](O)c1ccc(O)c(O)c1 [(- ) epinephrine, (-)-epinephrine]	50.7 nM
CC(C)(C)NCC(O)COc1cccc2[nH]c(=O)[nH]c12 (stereo not drawn) [CGP 12177A]	1.41 nM

Attention now shifts to the item below.
Request: EC50, test system bovine ARβ3 receptor (Bos taurus), entry Cc1ccc(Cl)c(OCC(O)CNC(C)(C)C)c1 (single isomer, unassigned; (-)) [(-) bupranolol, bupranolol]
507 nM
